- Tested on: NCI-H460
- assay_details: NCI tumour cell line growth inhibition, 48 h
Active and inactive are the calls of the source. No stated cut-off is given here; in the data, active = GI50 up to about 1.1 µM and inactive = higher.
Labels: 1.0 = active, 0.0 = inactive

> print(dat)
                                    compound  assigned.label
 1             O=Cc1c(-c2ccccc2)nc2ccccc2c1O             0.0
 2  O=C(C/C(CCC(=O)N(Cc1ccccc1)Cc1ccccc1)=N/Nc1ccc([N+](=O)[O-])cc1[N+](=O)[O-])c1ccccc1             0.0
 3  CC(=O)Oc1ccc(/C=C/C(=O)O[C@@H](C)[C@H](C)OC(=O)/C=C/c2ccc(OC(C)=O)c(OC(C)=O)c2)cc1OC(C)=O             0.0
 4  O=c1c(Br)c(-c2ccccc2)[s+]([O-])c2ccccc12 (stereo not given)             0.0
 5  O=C1CSC2(CC(/C=C/C=C/c3ccccc3)=NN2c2cccc(S(=O)(=O)O)c2)N1c1nc2ccccc2s1 (stereo not given)             0.0
 6  [N-]=[N+]=NC1(c2ccccc2)C(=O)C(Cl)=C(c2ccccc2)N(c2ccccc2)C1=O (stereo not given)             0.0
 7               O=C1NC2(CCCC2)C(=O)C12CCCC2             0.0
 8  CCOC(=O)c1c2c(n3ccccc13)C(=O)c1ccccc1C2=O             0.0
 9  COc1c2ccoc2c(S(=O)(=O)Nc2ccc(Cl)cc2)c2oc(C)cc(=O)c12             0.0
10  OCCCNCC(O)c1ccc(OCc2ccccc2)c(OCc2ccccc2)c1 (stereo not given)             0.0
11  O=C1CSC(c2ccccc2)N1c1ccc(-n2c(-c3ccccc3)nc3ccccc3c2=O)cc1 (stereo not given)             0.0
12  O=C1CCC(c2nc3cc(Cl)ccc3o2)C(=O)N1 (stereo not given)             0.0
13  CN(C(=O)C1=CCC2(CC1)OCCO2)c1ccccc1OS(=O)(=O)C(F)(F)F             0.0
14  CCC1=C(CC2NCCc3ccccc32)CC2c3cc(OC)c(OC)cc3CCN2C1 (stereo not given)             1.0
15  Cc1ccccc1NC(=O)C(=O)C(c1cnc2ccc([N+](=O)[O-])cc2n1)[N+](=O)[O-] (stereo not given)             0.0
16  CC1=C2CCCC2=C/C(=N/Nc2ccc([N+](=O)[O-])cc2[N+](=O)[O-])CC1             0.0
17  O=C(/C=C/c1ccc(-c2ccccc2)cc1)NCc1ccc(C(=O)NCc2ccccc2)cc1             0.0
18  Nc1c2ccccc2nc2ccc3c(=O)cc(-c4ccccc4)oc3c12             1.0
19  O=C(CCc1ccccc1)ON1C(=S)C(c2ccccc2)(c2ccccc2)N=C1Sc1ccccc1             0.0
20  CC(C)(C)OC(=O)N1N=NC2C1C1CC(OCc3ccccc3)(OCc3ccccc3)C2O1 (stereo not given)             0.0
